Values from patent EP0444945A2

# experimental.system: AVP-V₁ sites (Rattus norvegicus, UniProt P30560)
# Sequence (P30560 whole entry): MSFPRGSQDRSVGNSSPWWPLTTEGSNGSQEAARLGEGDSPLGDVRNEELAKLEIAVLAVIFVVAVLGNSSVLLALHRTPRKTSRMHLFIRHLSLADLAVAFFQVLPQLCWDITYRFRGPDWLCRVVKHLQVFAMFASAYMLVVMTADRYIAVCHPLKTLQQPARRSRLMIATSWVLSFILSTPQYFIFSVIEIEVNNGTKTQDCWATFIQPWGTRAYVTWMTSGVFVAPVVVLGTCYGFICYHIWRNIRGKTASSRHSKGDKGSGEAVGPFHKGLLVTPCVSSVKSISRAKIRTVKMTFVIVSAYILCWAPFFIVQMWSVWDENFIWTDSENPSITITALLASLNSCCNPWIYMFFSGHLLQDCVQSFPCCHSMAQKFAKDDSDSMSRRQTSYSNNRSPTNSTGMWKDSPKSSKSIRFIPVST
recorded.endpoint: IC50 (µM)
Express it in µM; write the number only.

Data request: Query: IC50; subject: Cc1ccc(S(=O)(=O)N2CCC3(C=Cc4ccccc43)CC2)cc1
Data returned: 39

====

Listing: inhibition at 1 µM of selected molecules
# experimental.system: uterine OT receptors (Rattus norvegicus, UniProt P70536)
# Construct: from tissue; host or cells: uterus of DES-treated rats, crude membrane preparation
# Sequence (P70536 1-388): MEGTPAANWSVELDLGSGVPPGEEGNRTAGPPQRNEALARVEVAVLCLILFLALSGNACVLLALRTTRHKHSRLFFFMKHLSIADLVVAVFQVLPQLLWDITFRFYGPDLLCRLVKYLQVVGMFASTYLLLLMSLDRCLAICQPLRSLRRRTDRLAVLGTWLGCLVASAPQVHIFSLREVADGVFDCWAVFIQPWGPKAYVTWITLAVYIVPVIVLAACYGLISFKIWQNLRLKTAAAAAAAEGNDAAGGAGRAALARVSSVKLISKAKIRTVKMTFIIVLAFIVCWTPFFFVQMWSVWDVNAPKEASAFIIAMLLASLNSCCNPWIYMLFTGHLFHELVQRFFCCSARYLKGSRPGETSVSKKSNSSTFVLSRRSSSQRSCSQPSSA
# assay.details: [³H]OT radioligand binding assay, crude uterine membrane preparation
# Design: species or system rats
# experimental.setup: @ 1 µM test compound; 1 nM [³H]OT, rat uterus; read-out: Inhibition Oxytocin % inhibition

molecule	experimental.system	recorded.endpoint	data.value
CC(C)(C)OC(=O)N[C@@H](Cc1ccccc1)[C@@H](O)CC(=O)N1CCC2(C=Cc3ccccc32)CC1	uterine OT receptors (Rattus norvegicus, UniProt P70536)	inhibition at 1 µM	21%
CC12CCC(C(CC(=O)N3CCC4(C=Cc5ccccc54)CC3)C1=O)C2(C)C (stereo not shown)	uterine OT receptors (Rattus norvegicus, UniProt P70536)	inhibition at 1 µM	35%
CC1(C)C2CCC1(C)C(O)C2CC(=O)N1CCC2(C=Cc3ccccc32)CC1 (stereo not shown)	uterine OT receptors (Rattus norvegicus, UniProt P70536)	inhibition at 1 µM	19%

Moving on to the next molecule.
Data request: Which inhibition at 1 µM is listed for O=S(=O)(c1ccc(Cl)cc1)N1CCC2(C=Cc3ccccc32)CC1 ?
Data returned: 35%
